biological target: Thymidylate kinase (Mycobacterium tuberculosis); assay: Competitive inhibition of Mycobacterium tuberculosis TMPK by Lineweaver-Burk analysis
Measured Parameter: pKi
One number for each entry, as −log10 of the molar value.

{"columns": ["Query Smiles", "pKi"],
 "data": [
  ["Cc1cn([C@@H]2C[C@H](O)[C@@H](Cn3cc(-c4ccc(Cl)cc4)nn3)O2)c(=O)[nH]c1=O", 5.05]
]}

Quick batch: pKi for everything below.
1. Cc1cn([C@H]2C[C@H](O)[C@@H](CNc3nnnn3-c3ccc(Cl)c(C(F)(F)F)c3)O2)c(=O)[nH]c1=O
2. Cc1cn([C@H]2C[C@H](n3cc(-c4ccccc4)nn3)[C@@H](CO)O2)c(=O)[nH]c1=O
3. Cc1cn([C@H]2C[C@H](Nc3nnnn3-c3ccc(Cl)c(C(F)(F)F)c3)[C@@H](CO)O2)c(=O)[nH]c1=O
4. Cc1cn([C@H]2C[C@H](NC(=O)Nc3ccc(Cl)c(C(F)(F)F)c3)[C@@H](CO)O2)c(=O)[nH]c1=O
5. Cc1cn([C@H]2C[C@H](n3cc(-c4ccc(Cl)cc4)nn3)[C@@H](CO)O2)c(=O)[nH]c1=S

1. 4.14
2. 5.38
3. 4.35
4. 5.55
5. 4.82

Batch lookup, pKi per entry.
1. Cc1cn([C@H]2C[C@H](NC(=S)Nc3ccc(Cl)c(C(F)(F)F)c3)[C@@H](CO)O2)c(=O)[nH]c1=O
2. Cc1cn([C@@H]2C[C@H](n3cc(-c4ccc(Cl)cc4)nn3)[C@@H](CO)O2)c(=O)[nH]c1=O

1. 5.00
2. 4.46

* * *

Biological target: Thymidylate kinase (Homo sapiens, UniProt P23919)
Sequence (P23919 whole entry): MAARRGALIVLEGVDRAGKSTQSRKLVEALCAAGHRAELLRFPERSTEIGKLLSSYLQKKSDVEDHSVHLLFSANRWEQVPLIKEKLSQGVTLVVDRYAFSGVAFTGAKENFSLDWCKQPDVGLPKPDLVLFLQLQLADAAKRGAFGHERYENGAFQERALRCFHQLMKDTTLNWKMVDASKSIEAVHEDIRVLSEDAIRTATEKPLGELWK
Measured Parameter: Ki
Answer with the figure and its unit, nothing else.

For Thymidylate kinase (Homo sapiens, UniProt P23919), provide Ki of `Cc1cn([C@H]2C[C@H](NC(=O)Nc3ccc(Cl)c(C(F)(F)F)c3)[C@@H](CO)O2)c(=O)[nH]c1=O` please.
95 µM

* * *

Target: Thymidylate kinase (Mycobacterium tuberculosis, UniProt P9WKE1)
Sequence (P9WKE1 whole entry): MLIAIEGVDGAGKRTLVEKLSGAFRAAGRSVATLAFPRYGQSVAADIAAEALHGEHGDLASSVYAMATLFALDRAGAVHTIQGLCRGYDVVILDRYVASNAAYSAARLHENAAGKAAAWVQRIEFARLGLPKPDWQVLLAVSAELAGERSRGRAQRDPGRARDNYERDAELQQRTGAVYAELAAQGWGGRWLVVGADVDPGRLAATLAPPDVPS
For each entry below, report its Ki value.
Answers are plain numbers, in µM.

Each compound below has a reported value. Please supply its Ki.
1. Cc1cn([C@H]2C[C@H](n3nnnc3NCc3ccccc3)[C@@H](CO)O2)c(=O)[nH]c1=O
2. Cc1cn([C@@H]2C[C@H](N=[N+]=[N-])[C@@H](CO)O2)c(=O)[nH]c1=O
3. Cc1cn([C@H]2C[C@H](n3cc(-c4ccc(Cl)cc4)nn3)[C@@H](CO)O2)c(=O)[nH]c1=O

1. 2.3
2. 6
3. 2.1

The values you see were collected from ChEMBL document CHEMBL1926583.
